- Tested on: PC-3 prostate
- assay-text: NCI tumour cell line growth inhibition, 48 h
measured-endpoint: TGI

// solved cases for TGI follow
Query block: Given the entry COC(=O)Cc1c([C@H]2[C@H](CC(=O)OC)c3ccccc3N2C(C)=O)[nH]c2ccccc12 , report its measured TGI.
Result block: > 100 µM

Query block: Query (compound): NC1CNC(=O)c2c(Cl)sc(Cl)c21 (configuration not stated) ; field requested: TGI
Result block: > 100 µM

Query block: Entry O/N=C/C1c2ccccc2-c2ccccc21 has what TGI?
Result block: 36.9 µM

Query block: Record request: TGI value, item CC(=O)OCC(OC(C)=O)C1C[C@H]2O[C@@H]3[C@H](C[C@H]2O1)O[C@@]1(C[C@@H]3C)C[C@H](C)[C@@H]2O[C@]3(C[C@@H]2O1)C[C@H]1O[C@H]2[C@H](C)[C@H]4OC(=O)CC5CC[C@H]6OC7[C@H]8O[C@]9(CC[C@H]%10CC(O)(CO)[C@H](CC[C@H]%11C[C@@H](C)C(O)(CO)C(C[C@@H]4O[C@H]2C[C@H]1O3)O%11)O%10)CC8O[C@@H]7[C@@H](O9)[C@H]6O5 (some centres not stated)
Result block: > 1 µM

Query block: GET /values?readout=TGI&item= COCc1nc2c(OC)cc(-c3nc4ccc(N5CCN(C)CC5)cc4[nH]3)c(OC)c2[nH]1
Result block: > 100 µM

Query block: Report TGI for O=C(N/N=C/c1ccco1)c1cc(I)cc(I)c1O please.
Result block: > 50 µM

Query block: // query TGI value for entry COc1cc(/C=C\C(=O)O)ccc1OCc1ccccc1
Result block: > 100 µM

Query block: Which TGI is listed for CN1CCN(C(=O)OCc2nc3c(N4CCOCC4)nc(Cl)nc3n2C)CC1 ?
Result block: 2.92 µM

Query block: Dear colleague, I am looking for the recorded TGI of the following compound: NC(=O)C(=CNC(=S)c1ccncc1)C(N)=O
Result block: > 100 µM

Query block: Name the reported TGI value associated with the compound CCCn1cnc2c(SCc3ccccc3Cl)nc(N)nc21
Result block: 37.5 µM

Proceeding to the next compound to report its TGI.
Query block: Which TGI value is on record for NC(=O)c1cc2ccccc2o/c1=N/O ?
Result block: > 100 µM

====

- Tested on: CAKI-1 renal
- assay-text: NCI tumour cell line growth inhibition, 48 h; in the data active = GI50 below about 0.43 µM; inactive = the rest
Log the outcome using a class from T = active, F = inactive

For orientation, consider the following solved cases.
Query block: How did this test come out for COc1cc(C2NC(=O)c3ccccc3N2)ccc1OCCCCCOc1c(OC)cc(C2=NOC(c3cc(OC)c(OC)c(OC)c3)C2)cc1OC (centres undefined) ?
Result block: F

Query block: Would you mind telling me which call this test gave Cc1ccc(NC(=O)c2cccc(N(C)C)c2)cc1NC(=O)c1ccc(O)cc1 ?
Result block: F

Query block: Recorded test call requested for N#CSc1c[nH]c2cccc(/C=C/C(=O)/C=C(/C=C/c3cccc4[nH]cc(SC#N)c34)OB(F)F)c12
Result block: F

Query block: Query: recorded result category for CC[CH2][Sn]([CH2]CC)([O]C(=O)c1cccnc1SC)[O][Sn]([CH2]CC)([CH2]CC)[O]C(=O)c1cccnc1SC in this test
Result block: T

Query block: I would be grateful if you could indicate the recorded call for CCN(CC)c1ccc(/C=C/c2ccc3cc(C)ccc3[n+]2CC)cc1 .
Result block: F

***
Query block: What call does the record list for Oc1ccc(NCc2nc3ccccc3[nH]2)cc1 ?
Result block: F

Query block: How did this test come out for COc1ccc(-c2cnnc3c(-c4cccc(C(F)(F)F)c4)cnn23)cc1 ?
Result block: F

Query block: What classification did C=CCCCCCCCCC(=O)[O][Sn]([CH2]CCC)([CH2]CCC)[CH2]CCC end up with in this test?
Result block: T

Query block: Kindly provide the recorded test outcome for the following compound: NC(=O)c1ccc(I)c(N)c1
Result block: F
